method: Lipophilicity, logD of compound in octanol/aqueous buffer at pH 7.4 incubated for 2 hrs by shake flask method
Format: physicochemical
assay.conditions: octanol/aqueous buffer, pH 7.4
Output schema: class label derived from logD at 2 h. Mapping: low class (below 3), middle class (3 to below 4), high class (4 or more)

Worked cases, answers included:
compound=CNC(=O)[C@]1(c2cccc(-n3nc4c(C(F)(F)F)cc(CN5CCC[C@H](C)C5)cn4c3=O)c2)C[C@H](C)C1 class_assignment="high class"
compound="CC1CC(c2cccc(-n3nc4c(C(F)(F)F)cc(CN5CCC[C@H](C)C5)cn4c3=O)c2)(n2cccn2)C1 (some centres not stated)" class_assignment="high class"
compound=C[C@H]1CCCN(Cc2cc(C(F)(F)F)c3nn(-c4cccc([C@@]5(C6CC6)CCNC(=O)O5)c4)c(=O)n3c2)C1 class_assignment="middle class"
compound="Cc1cc(C(=O)Nc2cccc(C3(C)CCNC(=O)N3)c2)nc(C2CC2)n1 (racemic)" class_assignment="low class"
compound=Cc1cc(C(=O)Nc2cccc([C@@]3(C)CCNC(=O)C3)c2)nc(C2CC2)n1 class_assignment="low class"

INPUT: Pick a category. Item: Cc1cc(C(=O)Nc2cccc([C@]3(C)CCNC(=O)C3)c2)nc(C2CC2)n1
OUTPUT: low class

INPUT: Pick a category. Item: Cn1cnnc1[C@]1(c2cccc(-n3nc4c(C(F)(F)F)cccn4c3=O)c2)C[C@H](C)C1
OUTPUT: low class

INPUT: Pick a category. Item: C[C@H]1CCCN(Cc2cc(C(F)(F)F)c3nn(-c4cccc([C@]5(C(=O)N(C)C)C[C@@H](C)C5)c4)c(=O)n3c2)C1
OUTPUT: high class

INPUT: Pick a category. Item: C[C@H]1CCCN(Cc2cc(C(F)(F)F)c3nn(-c4cccc([C@]5(C)CCNC(=O)C5)c4)c(=O)n3c2)C1
OUTPUT: middle class

INPUT: Pick a category. Item: C[C@H]1CCCN(Cc2cc(C(F)(F)F)c3nn(-c4cccc(C5(C)CC(=O)NC(=O)C5)c4)c(=O)n3c2)C1
OUTPUT: middle class

INPUT: Pick a category. Item: C[C@H]1CCCN(Cc2cc(C(F)(F)F)c3nn(-c4cccc([C@]5(C6CC6)CCNC(=O)O5)c4)c(=O)n3c2)C1
OUTPUT: middle class

INPUT: Pick a category. Item: Cc1cc(C(=O)Nc2cccc(C3(C)CNC(=O)O3)c2)nc(C2CC2)n1 (single isomer, unassigned; 14)
OUTPUT: low class

INPUT: Pick a category. Item: O=C1NCC[C@](c2cccc(-c3cc(C(F)(F)F)c[nH]c3=O)c2)(C2CC2)O1
OUTPUT: low class

INPUT: Pick a category. Item: Cc1cc(C(=O)Nc2cccc(C3(C)CCNC(=O)N3C)c2)nc(C2CC2)n1 (racemic)
OUTPUT: low class

INPUT: Pick a category. Item: Cc1cc(C(=O)Nc2cccc([C@]3(C)CCNC(=O)O3)c2)nc(C2CC2)n1
OUTPUT: low class

INPUT: Pick a category. Item: O=C1NCC[C@@](c2cccc(-c3cc(C(F)(F)F)c[nH]c3=O)c2)(C2CC2)O1
OUTPUT: low class
